method notes: yeast display, Sf9 membrane polyspecificity reagent, FACS + sequencing; frameworks hold sequencing errors

sequence record	polyreactivity (PSR sort gate)
QVQLVDTGGGLVQAGGSLRLSCAASGITFYFYVMGWYRQAPGKERELVADISTSDDSTYYADSVKGRFTISRDNAKNTVYLQMNSLKPEDTAVYYCATATRTYSAWYEYVYWGQGTQVTVSS	low polyreactivity
QVQLVESRGGLVQAGGSHRLSCAASGITILQYAMGWYRQAPRKERELVAAISRRGGNTYYADSVKGRFTISRDNAKNTVYLQMNSLKPEDTAVYYCAALSSFQSEYDYWGQGTQLTVSS	high polyreactivity
QVQLVESGGGLVQAGGSLRLSCAASGFILQGYAMGWYRQAPGKERELVATITTSSRTYYADSVKGRFTISRDNAKNTVYLQMNRLKPEDTAVYYCDKSVYPYGYYYGQMDYWGQGTQVTVSS	high polyreactivity
QVQLVESGGGLVQAGGSLRLSCAASGQTFRRYDMGWYRQAPGKEREFVAAITWSTGSTYYADSVKGRFTISRDYAKNTVYLQMNSLKPEDTAGYYCAARSGYFYRYYKYDYWGQGTQVTVSS	high polyreactivity
QVQLVESGGGLVQAGGSLRLSCAASGRIFYRYAMGWYRQAPGKERELVATISSGGSTNYADSVKGRFTISRDNAKNTVYLQMNSLKPEDTAVYYCARQSLRYSYVSRDYWGLGTQVTVSS	low polyreactivity

---

method notes: yeast display, Sf9 membrane polyspecificity reagent, FACS + sequencing; frameworks hold sequencing errors

sequence record	polyreactivity (PSR sort gate)
QVQLVESGGGLVQAGGSLRLSCAASGFTFAGNAMGWYRQAPGKERELVAAISRRGGSTYYADSVKGRFTISRDNAKNTVYLQMNSLKPEDTAVYYCAAVYPYDYDYWGQGTQVTVSS	high polyreactivity
QVQLVESGGGLVQAGGSLRLSSAASGRIFSDYAMGWYRQAPGKERELVATITSGDSTNYGDSVKGRFTISRDNAKNTVYLQMNSLKTESTEVYYCNAERFPDYDYWGQGTQVTVSS	low polyreactivity
QVQLVESGGGLVQAGGSLRLSCAASGSIFQANAMGWYRQAPGKERELLAAISSRGGSTYYADSVKGRFTISRDNAKNTVYLQMNSLKPGDTAVYYCAADSIQYTARPYDYWGQGTQVTVSS	low polyreactivity
QVQLVESGGGLVQAGGSLRLSCAASGYIFRNVMGWYRQAPGKERELVATISGSGGSTYYADSVKGRFTISRDNAKNTVYLQMNSLKPEDTAVYDCSKRWYRLGRYGGYDYWGQGTQVTVSS	high polyreactivity
QVQLVESGRGLVQAGGSLRLSCAASGRTFYYYAMGWYRQAPGKERELVAAISRSGTRTYYADSVKGRFTISRDNAKNTVYLQMNSLKPEDTAVYYCAAVGAAGQDNYWGQGTQVTVSS	high polyreactivity

---

method notes: yeast display, Sf9 membrane polyspecificity reagent, FACS + sequencing; frameworks hold sequencing errors

sequence record	polyreactivity (PSR sort gate)
QVQLVESGGGLVQAGGSLRLSCAASGSIFGYNVMGWYRQAPGKERELVAAISSSTGSTNYADSVKGRFTISRDNAKNTVYLQMNSLKPEDTAVYYCAVDPYVHWTTKLYDYWGQGSQVTVSS	low polyreactivity
QVQLVESGGGLVQAGGSLRLICAASGSIFITYAMGWSRPAPGKERELVAAIRDSGDRTYYADSVKGRFTISRDNAKNTVYLQMNSLKPEDTAVYYCNARWQERLKYDYWGQGTQVTVSS	low polyreactivity
QVKLEESGGGLVQAGGSLRLTCAASGRIFYLYGMGWYRQATGKERELVAAIDRRGTRTYYADSVKGRFTISCDNAQTTFYLQMNSVKPEDTAVYYCAARFAAYRTYTSYDYWGQGTQVTVSS	high polyreactivity
QVQLVESGGGLFQAGGSLRLSCAASGSTLVKNAMGWYRQAPGKERELVAAIDYNDDITYYADSVKGRFTISRDTAKNTVYLQMNSLKPEDTAVYYCAAEPYAGPELDYWGQGTQVTVSS	high polyreactivity
QVQLVESGGGLVQAGGSLRLSCAASGFTFCSNAMGWYRQAPGKERELVAAITWSGGRTYYADSVKGRFTISRDNAKNTVYLQMNSLKPEDTAVYYCNAYRNWWWSQYDYWGQGTQVTVSS	high polyreactivity
QVQLVESGGGLVQAGGSLRLSCAASGSIFVFYAMGWYRQAPGKERELVASITRSGVSTYYADSVKGRFTISRDNAKNTVYLQMNSLKPEDTAVYYCNVYKGNVVEHDYWGQGTQVTVSS	high polyreactivity
QVQLVDSGGGLVQAGGSLRLSCAASGSTFYYNAMGWYRQAPGKERELVARISRSGGSTYADSVKGRFTISRDNAKNTVYLQMNSMKPEDTAVYYCNAVAYGTPEFTSYAVRYDYWGQGTQVTVSS	low polyreactivity
QVQLVESGGGLVQAGGSLRLSCAASGRILHGYAMGWYRQAPGKERELVAAITSSGGRTYYADSVKGRFTISRDNAKNPVYLQMNSLKPEDTAVYYCAADRPAYRTGESKYDYWGQGTQVTVSS	low polyreactivity
QVQHVESGGGLVQAGGSLRLSCAASGRIIRRNARGSYRLAPGKERELVAAISWSGGSTYYADSVKGRFTISRDNAKNSVDLQMNSLKQEDTAVYYCAAVPCYTGDYWGQGTQVTVSS	low polyreactivity
QVQLVESGGGLVQAGGSLRLSCAASGSICRRNDMGWYRQAPGKERELVAAISSNGGSTYYADSVKGRFTISRDNAKNTVYLQMNSLKPEDTAVYYCNALVRVRYSPRYGYDYWGQGTQVTVSS	high polyreactivity
QVQLVESGGGLVQAGGSLRLNCAASGSTFARNAMGWYRQAAGKERELVAAISGSGGSTYYADSVKGRFTISRDNAKNTVYLQMNSLKPEDTAVYYCAAARRYYAYRYDYWGQGTQVTVSS	high polyreactivity
